target: MsbA (Escherichia coli); construct: full length, TEV-cleavable N-terminal His6 tag cut (intact native N-terminus MHND...), expressed in E. coli BL21-AI, delipidated, homodimer in C10E5; test: biochemical; parameters: native mass spectrometry lipid titration, sequential lipid binding model, mole fractions of apo and lipid-bound MsbA; conditions: first lipid; MsbA partially loaded with copper(II); read-out: KD1
Sequence (P60752 whole entry): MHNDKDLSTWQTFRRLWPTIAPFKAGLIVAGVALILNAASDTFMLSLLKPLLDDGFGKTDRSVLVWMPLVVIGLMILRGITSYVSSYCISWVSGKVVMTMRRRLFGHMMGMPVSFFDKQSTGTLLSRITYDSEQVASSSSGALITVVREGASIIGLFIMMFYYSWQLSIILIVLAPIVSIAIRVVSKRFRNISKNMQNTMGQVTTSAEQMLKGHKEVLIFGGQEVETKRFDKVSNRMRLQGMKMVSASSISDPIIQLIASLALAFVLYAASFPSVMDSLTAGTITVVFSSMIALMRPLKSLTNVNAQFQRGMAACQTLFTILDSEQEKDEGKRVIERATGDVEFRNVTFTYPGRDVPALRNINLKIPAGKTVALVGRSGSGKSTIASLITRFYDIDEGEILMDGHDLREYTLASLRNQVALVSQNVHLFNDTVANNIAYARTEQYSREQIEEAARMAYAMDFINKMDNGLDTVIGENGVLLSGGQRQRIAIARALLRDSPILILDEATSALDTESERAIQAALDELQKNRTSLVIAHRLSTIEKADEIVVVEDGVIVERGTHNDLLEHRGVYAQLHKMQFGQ
quantity: pKd
API: returns pKd as number; meaning -log10 of concentration in mol/L.

For orientation, consider the following solved cases.
{"molecule": "CCCCCCCC/C=C\\CCCCCCCC(=O)O[C@H](COC(=O)CCCCCCCCCCCCCCC)COP(=O)(O)OCC(O)CO (stereo partly shown)", "pKd": 5.31}
{"molecule": "CCCCCCCC/C=C\\CCCCCCCC(=O)O[C@H](COC(=O)CCCCCCCCCCCCCCC)COP(=O)(O)OCCN", "pKd": 4.91}
{"molecule": "CCCCCCCC/C=C\\CCCCCCCC(=O)O[C@H](COC(=O)CCCCCCCCCCCCCCC)COP(=O)([O-])OCC[N+](C)(C)C", "pKd": 4.69}

Consider the additional molecule presented here.
Find pKd for CCCCCCCC/C=C\CCCCCCCC(=O)O[C@H](COC(=O)CCCCCCCCCCCCCCC)COP(=O)(O)O on MsbA (Escherichia coli) and write it down.
4.83
